Test: Once daily intravenous 10 mg/kg P5P for four days, urinary excretion and renal clearance (Example Four)
Type: in vivo, human
Conditions: human, urine and plasma, iv, 10 mg/kg, P5P 10 mg/kg iv once daily, 4 days; Day 1; PA; mean; read-out: CLR, renal clearance (converted)
quantityName: CL renal (mL/min)
# unit: mL/min | format: bare number

// query Would you kindly share the measured CL renal for `Cc1ncc(CO)c(C(=O)O)c1O` ?
// result 144

###

Test: Single intravenous dose escalation of P5P, plasma pharmacokinetics (Examples Two and Three)
Assay type: in vivo, human
Details: both sexes, human, plasma, iv, 1 mg/kg, Group 1, P5P 1 mg/kg single iv; plasma P5P; mean
quantityName: Tmax

// query # input compound: Cc1ncc(COP(=O)(O)O)c(C=O)c1O [P5P, Pyridoxal 5′-phosphate, reference compound] ; wanted: its Tmax
// result 8.4 min
